assay: self-splicing fitness, log relative to wild type (ln ratio); higher = more splicing; Tetrahymena group I intron in knt gene, E. coli kanamycin selection, DiMSum; sequences stand for … in CUCUCU…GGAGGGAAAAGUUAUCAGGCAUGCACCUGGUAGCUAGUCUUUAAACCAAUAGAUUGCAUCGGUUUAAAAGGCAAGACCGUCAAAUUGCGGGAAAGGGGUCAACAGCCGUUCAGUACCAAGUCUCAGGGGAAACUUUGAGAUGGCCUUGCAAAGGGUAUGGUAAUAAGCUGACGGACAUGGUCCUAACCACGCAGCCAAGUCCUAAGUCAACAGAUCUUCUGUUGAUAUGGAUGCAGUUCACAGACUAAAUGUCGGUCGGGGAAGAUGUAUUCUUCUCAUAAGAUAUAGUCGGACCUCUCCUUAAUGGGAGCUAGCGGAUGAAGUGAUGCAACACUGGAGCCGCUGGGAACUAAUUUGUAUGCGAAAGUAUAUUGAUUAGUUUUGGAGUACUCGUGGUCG; conditions: 30 °C;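 note: selection with 25 µg/mL kanamycin versus none on LB agar overnight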
quantity measured: self-splicing fitness (ln)
Reply with just the number.

query: Provide measured self-splicing fitness (ln) value, entry: CAUAAGCAAUAUUACGGGGC
result: -3.25

query: Provide measured self-splicing fitness (ln) value, entry: CGUCAGCAAUAUUACGGCCA
result: -0.937

query: Provide measured self-splicing fitness (ln) value, entry: CUCCAGCAAUAUUACGCGCG
result: -3.29

query: Provide measured self-splicing fitness (ln) value, entry: GACUAGCAAUAUUACGAAAG
result: -2.97

query: Provide measured self-splicing fitness (ln) value, entry: GAACAGCAAUAUUACGAUAU
result: -1.36

query: Provide measured self-splicing fitness (ln) value, entry: GAUUAGCAAUAUUACGAGCC
result: -0.73

query: Provide measured self-splicing fitness (ln) value, entry: UUCAAGCAAUAUUACGUUGG
result: -2.28

query: Provide measured self-splicing fitness (ln) value, entry: GGUAAGCAAUAUUACGACUG
result: -0.569

query: Provide measured self-splicing fitness (ln) value, entry: CGCCAGCAAUAUUACGGCCG
result: -2.9

query: Provide measured self-splicing fitness (ln) value, entry: CAGUAGCAAUAUUACGUUAC
result: -3.34

query: Provide measured self-splicing fitness (ln) value, entry: GUCCAGCAAUAUUACGGUAU
result: -0.797

query: Provide measured self-splicing fitness (ln) value, entry: UUGUAGCAAUAUUACGCCUC
result: -2.07

query: Provide measured self-splicing fitness (ln) value, entry: UUCUAGCAAUAUUACGUUUG
result: -3.49

query: Provide measured self-splicing fitness (ln) value, entry: AUCAAGCAAUAUUACGCGGU
result: -4.07

query: Provide measured self-splicing fitness (ln) value, entry: CACUAGCAAUAUUACGAGGA
result: -4.01

query: Provide measured self-splicing fitness (ln) value, entry: CCAAAGCAAUAUUACGAAAU
result: -3.31

query: Provide measured self-splicing fitness (ln) value, entry: CUAAAGCAAUAUUACGGCAG
result: -0.0254

query: Provide measured self-splicing fitness (ln) value, entry: ACAUAGCAAUAUUACGUAGA
result: -3.71

query: Provide measured self-splicing fitness (ln) value, entry: GACGAGCAAUAUUACGUCAU
result: -2.2

query: Provide measured self-splicing fitness (ln) value, entry: AGAUAGCAAUAUUACGGUCA
result: -0.325

query: Provide measured self-splicing fitness (ln) value, entry: GUGCAGCAAUAUUACGUUGU
result: -3.71

query: Provide measured self-splicing fitness (ln) value, entry: UUAUAGCAAUAUUACGUGAG
result: -1.2

query: Provide measured self-splicing fitness (ln) value, entry: GCCAAGCAAUAUUACGGGGU
result: -4.5

query: Provide measured self-splicing fitness (ln) value, entry: CCUGAGCAAUAUUACGCCGA
result: -3.1

query: Provide measured self-splicing fitness (ln) value, entry: ACGAAGCAAUAUUACGGUUU
result: -3.17

query: Provide measured self-splicing fitness (ln) value, entry: GGCCAGCAAUAUUACGAUCU
result: -0.383

query: Provide measured self-splicing fitness (ln) value, entry: ACGCAGCAAUAUUACGGAGU
result: -2.79

query: Provide measured self-splicing fitness (ln) value, entry: CGGUAGCAAUAUUACGAAGA
result: -2.99

query: Provide measured self-splicing fitness (ln) value, entry: GACCAGCAAUAUUACGGCCG
result: -0.246

query: Provide measured self-splicing fitness (ln) value, entry: ACGCAGCAAUAUUACGGCUU
result: -0.345

query: Provide measured self-splicing fitness (ln) value, entry: CUACAGCAAUAUUACGUUGA
result: -3.13

query: Provide measured self-splicing fitness (ln) value, entry: AAGCAGCAAUAUUACGGUGC
result: -3.29

query: Provide measured self-splicing fitness (ln) value, entry: ACGAAGCAAUAUUACGAUAC
result: -3.68

query: Provide measured self-splicing fitness (ln) value, entry: AACAAGCAAUAUUACGAUGC
result: -2.67

query: Provide measured self-splicing fitness (ln) value, entry: UGGAAGCAAUAUUACGUCUU
result: -0.99

query: Provide measured self-splicing fitness (ln) value, entry: AAACAGCAAUAUUACGCGCA
result: -0.282

query: Provide measured self-splicing fitness (ln) value, entry: UGCGAGCAAUAUUACGUGAU
result: -2.47
